Tested on: ovarian carcinoma SKOV3
experiment: Cytotoxicity: inhibition of proliferation, sulforhodamine B staining
Assay type: cell-based, human
condition.label: Homo sapiens, SK-OV-3; Example 25, Table 4; DMSO stock diluted in series before addition; n=3-7; read-out: IC50 SKOV3 Average
Recorded pIC50, one value per entry.
Entry type: numeric. Quantity: pIC50, the -log10 of concentration in molar units.

Below: 5 compounds and their reported pIC50.
[[record]]
compound = "COc1ccc(/C=C/C(=O)Nc2ccc3[nH]c(C(=O)N4CC(CCl)c5c4cc(O)c4oc(C)nc54)cc3c2)cc1 (stereo not shown)"
recorded_result = 9.21

[[record]]
compound = "COc1cc2cc(C(=O)N3CC(CCl)c4c3cc(O)c3oc(C)nc43)[nH]c2c(OC)c1OC (stereo not shown)"
recorded_result = 9.49

[[record]]
compound = "Cc1nc2c3c(cc(O)c2o1)N(C(=O)c1cc2cc(NC(=O)c4cc5cc(OCCN(C)C)ccc5[nH]4)ccc2[nH]1)CC3CCl (stereo not shown)"
recorded_result = 8.38

[[record]]
compound = "COCCOc1ccc2[nH]c(C(=O)N3CC(CCl)c4c3cc(O)c3oc(C)nc43)cc2c1 (stereo not shown)"
recorded_result = 9.77

[[record]]
compound = "COc1ccc2sc(C(=O)N3CC(CCl)c4c3cc(O)c3oc(C)nc43)cc2c1 (stereo not shown)"
recorded_result = 8.77


Consider now this further compound.
Q: May I ask what pIC50 has been recorded for `COc1cc2cc(C(=O)N3C[C@@H](CCl)c4c3cc(O)c3oc(C)nc43)[nH]c2c(OC)c1OC` ?
A: 9.52
